Hello, the source for this data is PubChem BioAssay (NCI), in case you need it.

Test system: CCRF-CEM leukemia
Experiment: NCI-60 one-dose screen, 48 h (100 = growth as untreated, 0 = no growth, -100 = all killed)
Conditions: 10 µM unless noted
The panel holds about 83,000 compounds, 20% with a hit somewhere; the sample as a whole holds those more often. Activity calls are given as the source filed them. The calls were made as follows: active = growth percent below 10; inactive = the rest.
Listed molecules paired with reported growth

Observe how each entry below is paired with its result.
COc1cc(C(=O)N2CCN(c3ccccc3)CC2)c2ccccc2n1 | 29.3% (inactive)
CCOC(=O)c1ccc(C(C)(C)C)cc1 | 113% (inactive)
O=[N+]([O-])c1ccc2[nH]c(=S)n(/C=C(/c3ccc(Cl)cc3Cl)S(=O)(=O)Cc3ccc(Cl)cc3Cl)c2c1 | 103% (inactive)
Cc1nc(C)c(C(=O)O)cc1C(=O)O | 103% (inactive)

What value of measured growth is listed for CC(C)(C)NCCC(O)c1cc(C(F)(F)F)nc2c(C(F)(F)F)cccc12 (stereo not given) ?
94.5% (inactive)

====

Tested on: 786-0 renal
Test: NCI-60 one-dose screen, 48 h (100 = growth as untreated, 0 = no growth, -100 = all killed)
Conditions: 10 µM unless noted
This is part of a sample that, as a whole, favours compounds with a hit. Of some 83,000 tested, about 20% had one in any assay. Calls of active or inactive are those of the source. How the source made its calls: active means growth percent below 10; inactive means the rest.
Listed compounds paired with reported growth

Observe how each entry below is paired with its result.
CC(CO)(CO)C(=O)O | 105% (inactive)
NNC(=O)N/N=C1\C(=O)N(c2nccs2)C(=O)C(=O)C1c1nc2ccccc2s1 (stereo not drawn) | 118% (inactive)

Lab note: next compound to report on.
What value of measured growth is listed for Cc1cccnc1NC1OC(=O)c2ccccc21 (stereo not drawn) ?
99.6% (inactive)

====

System: OVCAR-3 ovarian
Assay: NCI-60 one-dose screen, 48 h
Settings: 10 µM unless noted
Compounds without any hit were thinned out: in the full panel of roughly 83,000, 20% have a hit. The source made the active and inactive calls. How the source made its calls: active means growth percent below 10; inactive means the rest.
In this exercise, the only acceptable responses are active, inactive

# lookup: test call for "CC(=O)Oc1c(Cl)cccc1-c1ccccc1"
inactive

// repeat for "CCC(=O)Oc1ccc2ccccc2c1" and report
inactive

// repeat for "CCCCc1ccc2nc(NC(=O)OC)[nH]c2c1" and report
active

// repeat for "Nc1c(O)c(S(=O)(=O)O)c(O)c2c1C(=O)c1ccccc1C2=O" and report
active

// repeat for "Nc1cc2ccccc2c(O)c1O" and report
active

// repeat for "Oc1cccnc1CN1CCCC1" and report
inactive

// repeat for "CC(C)c1ccc(C(=O)OCCCl)cc1" and report
inactive

// repeat for CN1CCCN(C(c2ccccc2)c2ccc(Cl)cc2)CC1 (configuration not stated) and report
inactive

// repeat for "Cc1nc(O)cc(=O)[nH]1" and report
inactive

// repeat for "NC(CCl)=NCC12CC3CC(CC(C3)C1)C2" and report
active

// repeat for "O=Cc1ccc(Cl)c(Cl)c1" and report
inactive

// repeat for "C1CCc2onc(-c3noc4c3CCCCC4)c2CC1" and report
inactive

====

Test system: NCI-H460 lung
Assay: NCI-60 one-dose screen, 48 h
Settings: 10 µM unless noted
About 83,000 compounds went through this panel and 20% of them were active in at least one assay; those are over-represented in the sample as a whole. Active and inactive are the calls of the source. How the source made its calls: active means growth percent below 10; inactive means the rest.
In this exercise, the only acceptable responses are class 1 = active, class 0 = inactive

# count of solved cases: 3
COc1cc(C(=O)N2CCN(c3ccccc3)CC2)c2ccccc2n1 | class 1
N#Cc1ccc(OC(=O)Nc2cc(Cl)cc(Cl)c2)cc1 | class 1
S=c1nc2[nH]c3ccccc3c2n[nH]1 | class 0

# lookup: test call for "C#CCSc1nnnn1-c1ccccc1"
class 0

// repeat for "CC(=O)Oc1c(Cl)cccc1-c1ccccc1" and report
class 0

// repeat for COc1cc(OC)c(NC(=O)C(Sc2nc(C)cc(C)c2C#N)c2ccccc2)cc1Cl (stereo unspecified) and report
class 0

// repeat for C=CCC(O)C=C (stereo unspecified) and report
class 0

// repeat for "CCNCC(C)(C)O" and report
class 0

// repeat for "C=CC(C)(C)n1cc(C2=C(O)C(=O)C(c3cn(C(C)(C)C=C)c4ccccc34)=C(O)C2=O)c2ccccc21" and report
class 0
